# Test system: PC-3 cells
# assay.summary: cell growth inhibition, PC-3, Resazurin, 1% FBS
# Format: cell-based, Human
# test.context: 48 hr of drug exposure
compounds and their reported EC50

{"compound": "C=C[C@@]1(C)CCC=C2[C@H]1CC[C@@H]1[C@](C)(CNCCN)CCC[C@@]21C [CC-3-13P]", "EC50, µM": 4}
{"compound": "C=C[C@@]1(C)CCC=C2[C@H]1CC[C@@H]1[C@](C)(C(=O)N3CCOCC3)CCC[C@@]21C", "EC50, µM": 19}

###

# Test system: B16-F10 melanoma cells
# assay.summary: 48 hr cytotoxicity, B16-F10 melanoma
# Format: cell-based, murine
# test.context: 10% FBS, individual values
# Procedure: B16-F10 (ATCC; CRL-6475), DU 145 (ATCC; HTB-81), HEK293 (ATCC; CRL-1573), HT-29 (ATCC; HTB-38), LoVo (ATCC; CCL-229), MDA-MB-231 (ATCC; HTB-26), MIA PaCa-2 (ATCC; CRL-1420), NCI-H292 (ATCC; CRL-1848), OVCAR-3 (ATCC, HTB-161), PANC-1 (ATCC; CRL-1469), PC-3 (ATCC; CRL-1435), RPMI 8226 (ATCC; CCL-155) and U266 (ATCC; TIB-196) are maintained in appropriate culture media. The cells are cultured in an incubator at 37° C. in 5% CO2 and 95% humidified air. […]

{"compound": "C=CC(=O)C1(C)CCCC2(C)C3=CCC(C)(C=C)C[C@@H]3CC[C@H]12 (stereo in doubt)", "test.system": "B16-F10 melanoma cells", "IC50 / µM": 7.5}

Origin of the recorded values: patent US7893299B2
